Hello, the source for this data is ChEMBL document CHEMBL1131685, in case you need it.

test: Binding constant for spermine binding to Ribonuclease S (RNA ase) by saturation curve method

>  <compound structure string>
NCCCNCCCCNCCCN

>  <Log K>
5

$$$$
>  <compound structure string>
NCCCCNCCCN

>  <Log K>
5.4

$$$$
>  <compound structure string>
C1CNCCNCCNCCN1

>  <Log K>
3.7

$$$$
>  <compound structure string>
NCCNCCNCCN

>  <Log K>
5

$$$$
>  <compound structure string>
NCCN(CCN)CCN

>  <Log K>
5

$$$$

---

experiment: Association constant required to reduce the S-peptide / S-protein association by nonlinear curve fitting analysis; assay type: ADME

>  <substance>
H-KEEAAEKFERQHMDS-OH

>  <Log K>
6.9

$$$$
>  <substance>
H-EETAEAKFERQHMDS-OH

>  <Log K>
6.5

$$$$
>  <substance>
H-KETAAAKFERQHMDS-OH

>  <Log K>
7.6

$$$$
>  <substance>
H-KEDAADKFERQHMDS-OH

>  <Log K>
7.1

$$$$
>  <substance>
H-KEEAAAKFERQHMDS-OH

>  <Log K>
7.1

$$$$
